From: ChEMBL document CHEMBL4422610

targetDesc: Histone deacetylase 3 (Homo sapiens, UniProt O15379)
Sequence (O15379 whole entry): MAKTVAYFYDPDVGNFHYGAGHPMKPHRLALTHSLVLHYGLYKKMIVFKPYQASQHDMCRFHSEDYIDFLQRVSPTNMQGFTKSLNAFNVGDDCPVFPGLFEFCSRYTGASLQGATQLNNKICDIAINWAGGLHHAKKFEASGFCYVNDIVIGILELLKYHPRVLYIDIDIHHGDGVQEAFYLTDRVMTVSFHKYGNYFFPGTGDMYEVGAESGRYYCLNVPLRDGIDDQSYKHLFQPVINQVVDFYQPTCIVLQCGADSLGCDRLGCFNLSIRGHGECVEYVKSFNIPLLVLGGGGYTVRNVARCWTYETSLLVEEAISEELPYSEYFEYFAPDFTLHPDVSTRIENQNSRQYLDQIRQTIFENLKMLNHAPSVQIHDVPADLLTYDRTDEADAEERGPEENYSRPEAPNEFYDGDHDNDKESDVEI
assayProcedure: Inhibition of HDAC3 (unknown origin)
This section presents compounds with their documented pIC50 values.
pIC50 (log units): -log10 of the concentration in mol/L.

• COc1cc(/C=C/C(=O)NO)ccc1OCCCNC(=O)c1ccccc1O = 6.17
• COc1cc(/C=C/C(=O)NO)ccc1OCCCCN(C)C(=O)c1ccccc1O = 6.59
• COc1cc(/C=C/C(=O)NO)ccc1OCCN(C)C(=O)c1ccccc1O = 6.42
• COc1cc(/C=C/C(=O)NO)ccc1OCCCCNC(=O)c1ccccc1O = 6.39

Could you now look at the following compound, please?
Documented pIC50 of COc1cc(/C=C/C(=O)NO)ccc1OCCCN(C)C(=O)c1ccccc1O : 6.54

* * *

targetDesc: Histone deacetylase 1 (Homo sapiens)
Sequence (Q13547 whole entry): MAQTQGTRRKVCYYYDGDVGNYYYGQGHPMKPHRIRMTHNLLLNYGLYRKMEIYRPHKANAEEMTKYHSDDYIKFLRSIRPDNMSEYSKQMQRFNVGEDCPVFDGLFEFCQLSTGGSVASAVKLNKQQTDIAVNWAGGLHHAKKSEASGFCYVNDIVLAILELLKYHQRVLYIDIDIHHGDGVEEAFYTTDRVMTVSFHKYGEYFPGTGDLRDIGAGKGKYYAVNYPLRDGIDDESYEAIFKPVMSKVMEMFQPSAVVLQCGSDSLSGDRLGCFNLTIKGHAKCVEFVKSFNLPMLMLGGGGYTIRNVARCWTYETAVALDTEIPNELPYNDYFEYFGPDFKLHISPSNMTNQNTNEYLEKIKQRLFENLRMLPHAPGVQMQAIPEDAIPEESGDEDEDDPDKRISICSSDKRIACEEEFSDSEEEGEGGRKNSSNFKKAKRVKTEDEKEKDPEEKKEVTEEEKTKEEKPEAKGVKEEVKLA
assayProcedure: Inhibition of HDAC1 (unknown origin)
Lab note: cut-off is 20 nM. Strictly less in IC50 is y. Exactly 20 nM or more is n.

• COCCOCC(=O)SCCCCCC(NC(=O)OCc1ccccc1)C(=O)Nc1cccc2cccnc12 (configuration not stated) = y
• C[C@]12CC[C@@H]3c4ccc(O)cc4CC[C@H]3[C@@H]1CC[C@@]2(O)c1cn(CCCCC(=O)NO)nn1 = y
• C[C@]12CC[C@@H]3c4ccc(O)cc4CC[C@H]3[C@@H]1CC[C@@]2(O)c1cn(CCCCCCC(=O)NO)nn1 = n
• C[C@]12CC[C@@H]3c4ccc(O)cc4CC[C@H]3[C@@H]1CC[C@@]2(O)c1cn(CCCCCCCC(=O)NO)nn1 = n
• CC(=O)SCCCCCC(NC(=O)OCc1ccccc1)C(=O)Nc1cccc2cccnc12 (configuration not stated) = n
• O=C(NC(CCCCCSSCCO)C(=O)Nc1cccc2cccnc12)OCc1ccccc1 (configuration not stated) = y

Please turn your attention to the following entry.
## Task Item O=C(NC(CCCCCSSCCCCCC(NC(=O)OCc1ccccc1)C(=O)Nc1cccc2cccnc12)C(=O)Nc1cccc2cccnc12)OCc1ccccc1 (configuration not stated) : IC50 beneath 20 nM, strictly?
## Result y

* * *

targetDesc: Histone deacetylase 7 (Homo sapiens, UniProt Q8WUI4)
Sequence (Q8WUI4 whole entry): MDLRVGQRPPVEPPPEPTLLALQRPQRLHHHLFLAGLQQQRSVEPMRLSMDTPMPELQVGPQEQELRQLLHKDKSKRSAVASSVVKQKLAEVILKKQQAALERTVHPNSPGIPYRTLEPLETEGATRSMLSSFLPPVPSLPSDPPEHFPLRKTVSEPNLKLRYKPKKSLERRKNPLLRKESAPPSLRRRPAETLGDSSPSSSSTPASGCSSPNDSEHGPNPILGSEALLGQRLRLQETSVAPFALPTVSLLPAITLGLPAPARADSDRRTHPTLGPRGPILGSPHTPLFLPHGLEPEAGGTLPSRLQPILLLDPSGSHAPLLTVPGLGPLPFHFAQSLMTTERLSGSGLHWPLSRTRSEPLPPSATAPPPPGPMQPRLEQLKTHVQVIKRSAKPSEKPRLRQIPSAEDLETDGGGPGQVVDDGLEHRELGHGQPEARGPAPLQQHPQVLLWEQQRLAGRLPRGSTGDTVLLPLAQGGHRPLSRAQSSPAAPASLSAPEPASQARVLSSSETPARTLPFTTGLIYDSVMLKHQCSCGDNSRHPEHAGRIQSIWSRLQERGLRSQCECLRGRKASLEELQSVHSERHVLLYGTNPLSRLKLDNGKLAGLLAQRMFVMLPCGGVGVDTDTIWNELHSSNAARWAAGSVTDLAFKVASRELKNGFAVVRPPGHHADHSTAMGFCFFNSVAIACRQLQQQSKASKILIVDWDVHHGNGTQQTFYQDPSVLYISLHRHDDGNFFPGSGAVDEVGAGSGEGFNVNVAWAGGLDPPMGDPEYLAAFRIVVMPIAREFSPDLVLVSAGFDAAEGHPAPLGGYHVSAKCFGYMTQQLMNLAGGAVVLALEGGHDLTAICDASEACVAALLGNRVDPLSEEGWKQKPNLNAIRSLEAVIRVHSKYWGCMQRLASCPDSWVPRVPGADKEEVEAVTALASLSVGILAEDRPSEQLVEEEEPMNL
assayProcedure: Inhibition of recombinant full-length human HDAC7 using Boc-Lys(trifluoroacetyl)-AMC as substrate measured after 2 hrs by fluorescence assay
assayMetric: pIC50
Would you please state pIC50, meaning minus log10 of the concentration in mol/L, as a bare number?

Record summary for O=C(/C=C/c1cccn(CCCc2ccc3ccccc3c2)c1=O)NO : reported pIC50 = 5.43

* * *

targetDesc: Protein deacetylase HDAC6 (Homo sapiens, UniProt Q9UBN7)
Sequence (Q9UBN7 whole entry): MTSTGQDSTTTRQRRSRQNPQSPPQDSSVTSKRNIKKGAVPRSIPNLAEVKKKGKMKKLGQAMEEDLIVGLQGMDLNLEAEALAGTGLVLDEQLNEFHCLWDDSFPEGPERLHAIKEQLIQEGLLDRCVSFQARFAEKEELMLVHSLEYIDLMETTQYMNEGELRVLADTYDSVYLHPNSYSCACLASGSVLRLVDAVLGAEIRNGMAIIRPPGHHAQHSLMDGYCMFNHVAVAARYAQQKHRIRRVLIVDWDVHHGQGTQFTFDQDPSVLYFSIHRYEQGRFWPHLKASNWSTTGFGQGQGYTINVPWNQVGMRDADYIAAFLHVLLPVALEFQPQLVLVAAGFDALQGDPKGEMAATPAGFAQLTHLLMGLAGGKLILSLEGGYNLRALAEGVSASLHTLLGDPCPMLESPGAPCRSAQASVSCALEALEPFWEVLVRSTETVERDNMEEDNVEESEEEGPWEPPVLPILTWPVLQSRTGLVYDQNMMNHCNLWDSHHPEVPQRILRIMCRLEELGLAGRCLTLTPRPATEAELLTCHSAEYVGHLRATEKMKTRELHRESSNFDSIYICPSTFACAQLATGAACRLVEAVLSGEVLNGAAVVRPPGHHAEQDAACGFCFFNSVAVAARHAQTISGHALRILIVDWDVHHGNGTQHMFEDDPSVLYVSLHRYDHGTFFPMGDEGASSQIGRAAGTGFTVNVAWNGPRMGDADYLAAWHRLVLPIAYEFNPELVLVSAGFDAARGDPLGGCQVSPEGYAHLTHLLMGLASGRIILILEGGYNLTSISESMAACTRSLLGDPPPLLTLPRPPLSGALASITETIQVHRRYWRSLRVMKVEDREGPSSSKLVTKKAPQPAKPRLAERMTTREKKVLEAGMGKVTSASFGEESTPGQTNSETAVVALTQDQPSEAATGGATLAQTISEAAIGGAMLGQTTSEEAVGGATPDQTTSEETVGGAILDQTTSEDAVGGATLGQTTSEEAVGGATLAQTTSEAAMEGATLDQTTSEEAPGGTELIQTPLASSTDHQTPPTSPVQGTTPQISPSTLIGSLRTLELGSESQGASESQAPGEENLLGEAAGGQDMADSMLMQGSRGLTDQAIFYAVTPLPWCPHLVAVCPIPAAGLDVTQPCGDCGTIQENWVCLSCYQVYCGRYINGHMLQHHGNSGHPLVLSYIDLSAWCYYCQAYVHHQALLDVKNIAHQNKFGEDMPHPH
assayProcedure: Inhibition of human HDAC6 using fluorogenic HDAC substrate
assayMetric: pIC50
Conceptually, pIC50 converts a concentration in mol/L into minus its log10.

* O=C(NO)c1ccc(CN2c3ccccc3C3C2CCS3(=O)=O)cc1 (configuration not stated) | 8.09
* O=C(NO)c1ccc(CN2c3ccccc3CC[C@@H]3CCCC[C@H]32)cc1 | 8.22
* O=C(NO)c1ccc(CN2c3cc(C(F)(F)F)ccc3CCC[C@@H]3CCCC[C@H]32)cc1 | 7.96
* O=C(NO)c1ccc(CN2c3ccccc3C[C@@H]3CCCC[C@H]32)cc1 | 7.44
* O=C(NO)c1ccc(CN2c3ccccc3C[C@@H]3CCCCC[C@H]32)cc1 | 7.48

Reported pIC50 for O=C(NO)c1ccc(Cn2c3c(c4cc(F)ccc42)C[S+]([O-])CC3)cc1 (configuration not stated) was 8.03

Value of pIC50 reported for the compound O=C(NO)c1ccc(CN2c3ccccc3CCC[C@@H]3CCCC[C@H]32)cc1 is 8.10
